test system: Rattus norvegicus; test: Distribution of [125I]iodoclebopride in cerebellum after intravenous administration in rat after 2hours, expressed as percent dose/gram; assay type: ADME, organism-based; settings: in vivo
quantity_name: Tissue distribution (%)
Reply with just the number (in %).

Tissue distribution for COc1cc(N=[N+]=[N-])c(I)cc1C(=O)NC1CCN(Cc2ccccc2)CC1 [IODOAZIDOCLEBOPRIDE] ? 1.06

* * *

species on record: Rattus norvegicus; assay: Ratio of striatum/cerebellum distribution in rat after 2 hr; type: ADME, organism-based; conditions: in vivo
Catalogue of Ratio readings, one per entry.
Number only, no unit.

- compound: "COc1cc(N)c(I)cc1C(=O)NC1CCN(Cc2ccccc2)CC1"
  Ratio: 1.65

Field: next compound
Ratio for COc1cc(N=[N+]=[N-])c(I)cc1C(=O)NC1CCN(Cc2ccccc2)CC1 [IODOAZIDOCLEBOPRIDE] ? 2.37
